test.method.notes: Inhibition of human tryptase-beta after 5 mins by fluorimetric analysis
Consider the cut-off 1000 nM. If the recorded IC50 is strictly smaller, the label is 1 (yes); if not, the label is 0 (no).

Here's what some known entries look like.
item_smiles=Nc1ccc(CCC(=O)Oc2ccc3c(c2)C(=O)N(C2CCCCC2)C3=O)cc1 class_assignment="0 (no)"
item_smiles=N#Cc1ccc(N2C(=O)c3ccc(OC(=O)CCc4ccc(N)nc4)cc3C2=O)cc1 class_assignment="1 (yes)"
item_smiles=COc1cccc(N2C(=O)c3ccc(OC(=O)CCc4ccc(N)cc4)cc3C2=O)c1 class_assignment="1 (yes)"

Is the reported IC50 for `Cc1ccc(N2C(=O)c3ccc(OC(=O)CCc4ccc(N)cc4)cc3C2=O)cc1` strictly below 1000 nM?
0 (no)

Next: `COc1cc(N)ccc1CCC(=O)Oc1ccc2c(c1)C(=O)N(C)C2=O`
0 (no)

One more molecule: `CN1C(=O)c2ccc(OC(=O)CCc3cnc(N)nc3)cc2C1=O`
0 (no)
